Listed next: entries and their corresponding percent conversion of kaempferol.
# System: kaempferol
# test protocol: Percent conversion of substrate by E. coli cells expressing sulfotransferases
# Type: cell-based, Escherichia coli
# protocol conditions: 87 μM kaempferol, M9 medium, overnight 37° C.

molecule	percent conversion of kaempferol / %
SULT1E1 Gallus gallus domesticus: aryl sulfotransferase SULT1E1 Gallus gallus domesticus (SEQ ID NO: 6) (protein, listed as Gallus gallus) MGNDEVIRQDLGCLYDIPLYKCFVAGWPQVEAFQARPDDLLIATYPKSGTTWLSEILDAIYHDGDLEKCRRDAIYNRVPFLEMKAPGILSGVEQLEKIPSPRLVKTHLPVHLLPASFQEKDCKVIYMARNAKDVVISYYYFYQMAKIHPDPGTLSEFLQAFMDGKVAYGSWYKHVKGWWEKRHEKRLLYLFYEDMKKDPRREIQKILQFLGKEVAEETVARILHHTSFQEMKKNPATNYETMPTELMDHSLSPFMRKGISGDWANHFTVAQNERFDQHYQQQMAGSDLCFQMEA	47
SULT1A1 Canis lupus familiaris: aryl sulfotransferase SULT1A1 Canis lupus familiaris (SEQ ID NO: 5) (protein, listed as Canis lupus) MEDIPDTSRPPLKYVKGIPLIKYFAEALESLQDFQAQPDDLLISTYPKSGTTWVSEILDMIYQDGDVEKCRRAPVFIRVPFLEFKAPGIPTGLEVLKDTPAPRLIKTHLPLALLPQTLLDQKVKVVYVARNAKDVAVSYYHFYRMAKVHPDPDTWDSFLEKFMAGEVSYGSWYQHVQEWWELSHTHPVLYLFYEDMKENPKREIQKILKFVGRSLPEETVDLIVQHTSFKEMKNNSMANYTTLSPDIMDHSISAFMRKGISGDWKTTFTVAQNERFDADYAKKMEGCGLSFRTQL	60
SULT1A1 Sus scrofa domesticus: aryl sulfotransferase SULT1A1 Sus scrofa domesticus (SEQ ID NO: 4) (protein, listed as Sus scrofa) MEPVQDTYRPPLEYVKGVPLIKYFAEALGPLESFQAWPDDVLISTYPKSGTTWVSEILDLIYQGGDLQKCQRAPIFVRVPFLEFKIPGCPTGFELLKDTPAPRLLKTHLPLALLPQTLLDQKVKVVYVARNAKDVAVSYYHFYRMAKVHPNPGTWDSFLEDFMAGEVSYGSWYQHVQEWWELRHTHPVLYLFYEDMKENPKREIQKILEFVGRSLPEETVEDIVQHTSFQEMKNNAMTNYRTLPSDLLDHSISAFMRKGITGDWKSTFTVAQNERFEADYAEKMAGCNLRFRSEL	45
